- Conditions: human;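 also: human cytolytic liver injury, shown by histopathology or by a ratio above 5 of peak ALT or AST elevation to alkaline phosphatase elevation, value counts indexed references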
Recorded Endpoint: Hepatotoxicity (cytolytic)
Just the number, please.

Look up and state reported Hepatotoxicity (cytolytic) for O=C(NCC1CCCCN1)c1cc(OCC(F)(F)F)ccc1OCC(F)(F)F (stereo not given) [FLECAINIDE]
1

Please report Hepatotoxicity (cytolytic) for the following compound: NC(=O)OCC(COC(N)=O)c1ccccc1 [FELBAMATE]
2

Consider the compound COc1cc(NCc2ccc3nc(N)nc(N)c3c2C)cc(OC)c1OC [TRIMETREXATE] and give its recorded Hepatotoxicity (cytolytic).
0

Read the entry O=C(O)c1cccs1 and write its reported Hepatotoxicity (cytolytic).
3

Supply recorded Hepatotoxicity (cytolytic) for CC(C(=O)O)c1ccc2c(c1)[nH]c1ccc(Cl)cc12 (stereo not given) here.
0

Cited source: ChEMBL document CHEMBL3137667
